Each recorded value in this set is attributed to patent US12528814B2.

Molecular target: IRAK4 (Homo sapiens (Human), UniProt Q9NWZ3)
Sequence (Q9NWZ3 whole entry): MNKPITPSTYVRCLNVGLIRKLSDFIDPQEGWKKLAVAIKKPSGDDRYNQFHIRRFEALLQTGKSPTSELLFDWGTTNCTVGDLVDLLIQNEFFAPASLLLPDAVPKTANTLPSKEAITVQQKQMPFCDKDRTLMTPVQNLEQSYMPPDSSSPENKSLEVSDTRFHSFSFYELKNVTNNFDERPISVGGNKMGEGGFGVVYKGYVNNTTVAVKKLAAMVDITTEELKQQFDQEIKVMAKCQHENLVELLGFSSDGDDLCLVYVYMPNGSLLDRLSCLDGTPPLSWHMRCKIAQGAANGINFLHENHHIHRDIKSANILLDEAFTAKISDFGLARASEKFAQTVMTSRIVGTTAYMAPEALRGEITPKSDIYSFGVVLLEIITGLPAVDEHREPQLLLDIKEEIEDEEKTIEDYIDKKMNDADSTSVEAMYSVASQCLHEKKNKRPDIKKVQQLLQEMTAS
Test: IRAK4 Degradation HiBiT Assay
Conditions: read-out: Cellular IRAK4 HiBiT: DC50; Table 4; HiBiT-tagged Jurkat cells, 4 hrs
Metric Name: DC50 (µM)
Provide only the numeric value, understood in µM.

Example molecules with recorded DC50:
[
  {
    "Molecule": "CN[C@@H](C)C(=O)N[C@H](C(=O)N1C[C@@H](NC(=O)CCOCCC(=O)N2CCN(c3nnc(-c4cnc(-c5ccc6cc(C#N)cnn56)cc4NC(C)C)s3)CC2)C[C@H]1C(=O)N[C@@H]1CCCc2ccccc21)C1CCCCC1",
    "Observed Value": 0.816
  },
  {
    "Molecule": "CC(C)Nc1cc(-c2ccc3cc(C#N)cnn23)ncc1-c1nnc(N2CCN(C(=O)CN3CCC4(CC3)CN(c3ccc5c(c3)C(=O)N(C3CCC(=O)NC3=O)C5=O)C4)CC2)s1 (stereo not shown)",
    "Observed Value": 0.0827
  }
]

Proceed to the following item.
Problem: So what does the record say about DC50 for CN[C@@H](C)C(=O)N[C@H](C(=O)N1C[C@@H](NC(=O)CCCCC(=O)N2CCN(c3nnc(-c4cnc(-c5ccc6cc(C#N)cnn56)cc4NC(C)C)s3)CC2)C[C@H]1C(=O)N[C@@H]1CCCc2ccccc21)C1CCCCC1 ?
Result: 0.638

====

Biological target: UniProt:Q9NWZ3
Test: IRAK4 Degradation HiBiT Assay
Conditions: Jurkat, read-out: Cellular IRAK4 HiBiT: Dmax, Table 4; HiBiT-tagged Jurkat cells, 4 hrs
Metric Name: Dmax (%)
Provide only the numeric value, understood in %.

Example compounds with recorded Dmax:
[
  {
    "Compound": "CC(C)Nc1cc(-c2ccc3cc(C#N)cnn23)ncc1-c1nnc(N2CCC(NC(=O)C3CCN(Cc4ccc5c(c4)C(=O)N(C4CCC(=O)NC4=O)C5=O)CC3)CC2)s1 (centres unmarked)",
    "Dmax / %": 95
  },
  {
    "Compound": "CN[C@@H](C)C(=O)N[C@H](C(=O)N1CCC[C@H]1c1nc(C(=O)c2cccc(OCCOCCOCCOCCC(=O)N3CCN(c4nnc(-c5cnc(-c6ccc7cc(C#N)cnn67)cc5NC(C)C)s4)CC3)c2)cs1)C1CCCCC1",
    "Dmax / %": 45
  },
  {
    "Compound": "CNc1cc(-c2ccc3cc(C#N)cnn23)ncc1-c1nnc([C@H]2CC[C@H](NC(=O)CCOCCOc3cc(-c4scnc4C)ccc3CNC(=O)[C@@H]3C[C@@H](O)CN3C(=O)[C@@H](NC(=O)C3(F)CC3)C(C)(C)C)CC2)s1",
    "Dmax / %": 115
  }
]

Problem: So what does the record say about Dmax for CC(C)Nc1cc(-c2ccc3cc(C#N)cnn23)ncc1-c1nnc(N2CCN(CCCc3cccc4c3CN(C3CCC(=O)NC3=O)C4=O)CC2)s1 (centres unmarked) ?
Result: 90

Problem: One more compound: Cc1ncsc1-c1ccc([C@H](C)NC(=O)[C@@H]2C[C@@H](O)CN2C(=O)[C@@H](NC(=O)CCCCC(=O)N2CCN(c3nnc(-c4cnc(-c5ccc6cc(C#N)cnn56)cc4NC(C)C)s3)CC2)C(C)(C)C)cc1
Result: 97

====

Target: IRAK4 (Homo sapiens (Human), UniProt Q9NWZ3)
Test: IRAK4 Degradation HiBiT Assay
Settings: Jurkat, read-out: Cellular IRAK4 HiBiT: Dmax, Table 5; multiple runs; HiBiT-tagged Jurkat cells, 4 hrs
Each entry below carries its recorded Dmax.
Don't forget the unit after the value.

Example compounds with recorded Dmax:
[
  {
    "Compound": "CNc1cc(-c2ccc3cc(C#N)cnn23)ncc1-c1nnc(C23CCC(NC(=O)C4CCN(c5ccc6c(c5)C(=O)N(C5CCC(=O)NC5=O)C6=O)CC4)(CC2)CC3)s1 (stereo not drawn)",
    "Metric Name": "Dmax",
    "Observed Value": "103%"
  },
  {
    "Compound": "CC(C)Nc1cc(-c2ccc3cc(C#N)cnn23)ncc1-c1nnc(N2CCN(C(=O)CCCCCNc3ccc4c(c3)C(=O)N(C3CCC(=O)NC3=O)C4=O)CC2)s1 (stereo not drawn)",
    "Metric Name": "Dmax",
    "Observed Value": "69%"
  }
]

Problem: So what does the record say about Dmax for CNc1cc(-c2ccc3cc(C#N)cnn23)ncc1-c1nnc(N2CC3(CCN(C[C@@H]4CCN(c5ccc6c(c5)C(=O)N(C5CCC(=O)NC5=O)C6=O)C4)CC3)C2)s1 (stereo partly drawn) ?
Result: 41%
